Biological target: α4β7 integrin (Homo sapiens (Human), UniProt P13612+P26010)
Sequence (P13612 34-1032): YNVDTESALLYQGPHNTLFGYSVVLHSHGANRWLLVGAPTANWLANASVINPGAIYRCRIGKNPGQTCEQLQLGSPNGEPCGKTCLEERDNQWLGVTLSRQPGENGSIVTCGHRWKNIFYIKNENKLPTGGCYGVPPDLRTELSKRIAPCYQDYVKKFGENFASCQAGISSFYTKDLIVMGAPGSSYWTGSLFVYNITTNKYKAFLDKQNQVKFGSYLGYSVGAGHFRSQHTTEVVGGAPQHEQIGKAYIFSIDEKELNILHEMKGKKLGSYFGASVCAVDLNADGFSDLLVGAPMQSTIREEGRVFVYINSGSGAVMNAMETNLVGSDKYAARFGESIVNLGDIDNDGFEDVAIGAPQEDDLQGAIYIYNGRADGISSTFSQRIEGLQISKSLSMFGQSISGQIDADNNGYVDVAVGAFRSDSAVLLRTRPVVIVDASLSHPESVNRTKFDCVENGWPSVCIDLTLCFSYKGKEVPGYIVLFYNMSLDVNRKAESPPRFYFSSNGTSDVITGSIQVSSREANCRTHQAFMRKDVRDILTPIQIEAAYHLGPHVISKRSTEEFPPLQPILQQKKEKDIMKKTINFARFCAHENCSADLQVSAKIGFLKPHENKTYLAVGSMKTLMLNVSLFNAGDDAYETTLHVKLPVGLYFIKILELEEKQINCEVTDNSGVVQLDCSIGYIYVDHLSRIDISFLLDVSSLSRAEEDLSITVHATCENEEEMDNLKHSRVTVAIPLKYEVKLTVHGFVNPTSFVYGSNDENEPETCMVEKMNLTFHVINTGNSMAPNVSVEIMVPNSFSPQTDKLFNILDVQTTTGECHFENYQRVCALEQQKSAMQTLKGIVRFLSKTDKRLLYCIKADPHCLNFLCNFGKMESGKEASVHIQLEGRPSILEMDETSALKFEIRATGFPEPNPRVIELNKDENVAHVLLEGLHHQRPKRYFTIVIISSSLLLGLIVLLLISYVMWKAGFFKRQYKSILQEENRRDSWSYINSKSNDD
Sequence (P26010 20-798): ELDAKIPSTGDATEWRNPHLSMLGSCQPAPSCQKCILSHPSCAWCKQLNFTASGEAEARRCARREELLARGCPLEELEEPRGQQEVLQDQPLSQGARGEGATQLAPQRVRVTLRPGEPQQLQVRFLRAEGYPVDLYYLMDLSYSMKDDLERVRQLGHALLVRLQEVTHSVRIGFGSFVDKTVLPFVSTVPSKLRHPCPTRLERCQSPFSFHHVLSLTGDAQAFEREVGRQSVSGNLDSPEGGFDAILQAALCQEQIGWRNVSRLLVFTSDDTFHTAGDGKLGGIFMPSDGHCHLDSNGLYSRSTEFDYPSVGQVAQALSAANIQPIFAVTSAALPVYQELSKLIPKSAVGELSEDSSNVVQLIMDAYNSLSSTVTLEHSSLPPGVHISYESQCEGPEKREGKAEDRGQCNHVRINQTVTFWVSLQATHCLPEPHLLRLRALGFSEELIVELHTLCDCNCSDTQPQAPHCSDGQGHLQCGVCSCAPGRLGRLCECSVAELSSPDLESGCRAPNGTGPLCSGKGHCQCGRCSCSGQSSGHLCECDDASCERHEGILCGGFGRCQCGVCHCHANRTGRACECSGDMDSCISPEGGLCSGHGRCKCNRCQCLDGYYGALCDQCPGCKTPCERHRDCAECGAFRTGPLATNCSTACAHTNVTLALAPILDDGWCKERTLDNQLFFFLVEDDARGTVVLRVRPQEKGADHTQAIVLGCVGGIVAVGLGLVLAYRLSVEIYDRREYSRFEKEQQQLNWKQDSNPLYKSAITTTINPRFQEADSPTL
Assay: Integrin Adhesion Assay: Protocol 4 (MAdCAM-coated plate, RPMI-8866 cells with stable LOF mutation of the ITGB1 gene)
Type: cell-based
Conditions: Protocol 4; RPMI-8866 cells with LOF mutation of ITGB1, MAdCAM; read-out: Mean IC50 α4β7 KO
pIC50: −log10 of the molar value.
Assay Endpoint: pIC50

{"Smiles Structure": "COc1ccc(CN2CCCCC2)c(OC)c1-c1cccc2c(C[C@H](NC(=O)C3(C(F)(F)F)CCN(CC(F)(F)F)CC3)C(=O)O)cccc12", "Assay Result": "> 8.00"}
{"Smiles Structure": "COc1ccc2c(c1-c1cccc3c(C[C@H](NC(=O)C4(C(F)(F)F)CCN(CC(F)(F)F)CC4)C(=O)O)cccc13)CN(CC(F)F)CC2", "Assay Result": "7.00 to 8.00"}
{"Smiles Structure": "Cn1c(=O)c(-c2cccc3c(C[C@H](NC(=O)C4(C(F)(F)F)CCN(CC(F)(F)F)CC4)C(=O)O)cccc23)c(C(F)(F)F)c2ccc(CN3CCC(F)(F)CC3)cc21", "Assay Result": "7.00 to 8.00"}
